# growth values compiled below
Test system: LOX IMVI melanoma
assay.protocol: NCI-60 one-dose screen, 48 h (100 = growth as untreated, 0 = no growth, -100 = all killed)
run.conditions: 10 µM unless noted
The panel holds about 83,000 compounds, 20% with a hit somewhere; the sample as a whole holds those more often.
reported.endpoint: growth (%)

1. O=[N+]([O-])c1ccc(N/N=C(/C(=N/Nc2ccc([N+](=O)[O-])cc2)c2ccccc2)c2ccccc2)cc1; 61
2. CC12CCC3c4ccccc4CCC3(CO1)C2 (centres undefined); 101
3. C/C(=N/O)c1ccc(F)cc1; 69.5
4. CC1(C)CC[C@]2(C(=O)O)CC[C@]3(C)C(=CC[C@@H]4[C@@]5(C)C/C(=C/O)C(=O)C(C)(C)[C@@H]5CC[C@]43C)[C@@H]2C1; 27.4

###

Tested on: NCI-H460 lung
assay.protocol: NCI-60 one-dose screen, 48 h
run.conditions: 10 µM unless noted
About 83,000 compounds went through this panel and 20% of them were active in at least one assay; those are over-represented in the sample as a whole. Activity calls are given as the source filed them. Rule for the calls: active = growth percent below 10; inactive = the rest.
Outcome codes: 1.0 for active, 0.0 for inactive

1) CC[C@@H](C(=O)[C@@H](C)[C@@H](O)[C@H](C)[C@@H]1O[C@@H]([C@@H](CC)C(=O)NCCc2ccc(F)cc2)CC[C@@H]1C)C1O[C@]2(C=CC(=O)[C@]3(CC[C@@](C)([C@H]4CC[C@](O)(CC)[C@H](C)O4)O3)O2)[C@H](C)C[C@@H]1C (stereo partly specified); 0.0
2) CC(=O)Nc1nc2ccc(NS(=O)(=O)c3cccc4c(N(C)C)cccc34)cc2[nH]1; 0.0
3) Cc1cc(=O)[nH]c2c(C#N)cnn12; 0.0
4) O=C(NNC(=O)c1ccc(-n2cc(-c3ccccc3)nn2)cc1)Nc1ccccc1; 0.0
5) O=[N+]([O-])C1C(c2ccccc2)C12c1ccccc1-c1ccccc12 (stereo unspecified); 1.0
6) CCc1ccc(Oc2cn[nH]c2-c2ccc(OCCc3ccc(F)cc3)cc2O)cc1; 0.0
7) COc1cc(C(=O)n2nc(N3CCN(C)CC3)c3cc(N)ccc32)cc(OC)c1OC; 0.0
8) COc1ccc(-c2csc(NC(=O)CSc3nc(-c4ccccc4)cc(=O)[nH]3)n2)cc1; 0.0
9) N#CC1CCc2c(c(-c3cn[nH]c3C(F)(F)F)nc3c(F)cc4[nH]ncc4c23)C1 (stereo unspecified); 0.0
10) COP(=O)(OC)C(C)(C)CC(=O)CC(C#N)(C#N)C(C#N)C#N; 0.0
11) COc1cc(CNS(=O)(=O)c2ccc(C)cc2)ccc1OCc1cn(-c2ccc(F)cc2)nn1; 0.0

###

System: MOLT-4 leukemia
assay.protocol: NCI-60 one-dose screen, 48 h
run.conditions: 10 µM unless noted
Compounds without any hit were thinned out: in the full panel of roughly 83,000, 20% have a hit. Calls of active or inactive are those of the source. The calls were made as follows: active = growth percent below 10; inactive = the rest.
Possible outcomes: active, inactive

1. O=C1C(Cl)=C(Oc2ccccc2)C(=O)c2ccccc21; inactive
2. CN1CCN(c2ccc(C(=O)Nc3cccc(C#Cc4cccc5[nH]nc(N)c45)c3)cc2C(F)(F)F)CC1; active
3. COc1cc(CNC(=O)CCCC/C=C/C(C)C)ccc1OCc1nnc(Nc2ccc([N+](=O)[O-])cc2)o1; inactive
4. O=c1c2cc(-c3ccccc3)sc2nc2sc(-c3ccccc3)nn12; inactive
5. O=C(c1ccc(-c2nc(CSc3nc4ccccc4s3)no2)cc1)N1CCSCC1; active
6. CCOP(=O)(OCC)c1nc(-c2ccccc2)oc1NCc1cccnc1; inactive
7. O=C1Nc2ccccc2/C1=C\c1nc(-c2ccccc2F)n2ccccc12; inactive
8. COc1cc(/C=C\c2cc(/C=C\c3ccc(O)c(OC)c3)n(C(=O)COc3ccc(Cl)cc3Cl)n2)ccc1O; active
9. O=C(Nc1nc2ccc(F)cc2s1)c1cccnc1Nc1ccc(Cl)cc1; inactive
10. Clc1ccc(CNc2c3ccccc3nc3ccccc23)cc1; active
11. Cc1cc(=O)[nH]c2c(C#N)cnn12; inactive
12. O=C1c2cccnc2C(=O)c2c1c(C(=O)NCCn1ccnc1)c1ccccn21; active
13. COc1ccc(C(=S)N2CCN(c3ccccc3Cl)CC2)cc1OC; inactive
14. CN(C)Cc1ccc(NC(=O)c2cncc(C#Cc3cnc(N)c4ncccc34)c2)cc1F; inactive
15. N#Cc1c(-c2ccc(Cl)cc2)nc(SCC(=O)NC2=NN=C(c3ccccc3)CS2)[nH]c1=O; inactive
16. Cc1ccc(Sc2nnc(/N=C3\C(=O)Nc4ccccc43)s2)cc1; inactive
